# Tested on: Renilla luciferase RNA
# test: Barcoded aptazyme variant library screen: un-cleaved Renilla luciferase RNA by barcode read counts, HEK293-T cells
# Format: cell-based
# settings: un-cleaved Renilla luciferase RNA by barcode read counts; with 1 mM theophylline (ON) over without theophylline (OFF); HEK293-T cells; triplicate
quantity_kind: Fold change in RNA expression between the ON state and the OFF state

Before answering, review these 3 worked examples.
RA465 (nucleic acid, expressed or natural sequence) DNA: GCGCGTCCTGGATTCGCGGAAACGCGTACATCCAGCTGACCGAGAATACCAGCATCGTCTTGATGCCCTTGGAAGTCTCGGAGTCCCAAATAGGACGAAACGCGC :: 0.4
RA383 (nucleic acid, expressed or natural sequence) DNA: CGGAATACCAGCATCGTCTTGATGCCCTTGGAAGTCCGGCGCGTCCTGGATTCGCGGAAACGCGTACATCCAGCTGACGAGTCCCAAATAGGACGAAACGCGC :: 0.8
RA359 (nucleic acid, expressed or natural sequence) DNA: GCGCGTCCTGGATAGAATACCAGCATCGTCTTGATGCCCTTGGAAGTCTTCGCGGAAACGCGTACATCCAGCTGACGAGTCCCAAATAGGACGAAACGCGC :: 0.8

Ask: Fill blank: measured Fold change in RNA expression between the ON state and the OFF state of the molecule RA354 (nucleic acid, expressed or natural sequence) DNA: GCGCGTCCTGGATTCGCGGAAACGCGTACATCCAGCTGACGAGTCCCAAATAGGAGTGATACCAGCATCGTCTTGATGCCCTTGGCAGCACTACGAAACGCGC is ____.
Reply: 0.9
